Target: GLUT1 (Homo sapiens, UniProt P11166)
Sequence (P11166 1-492): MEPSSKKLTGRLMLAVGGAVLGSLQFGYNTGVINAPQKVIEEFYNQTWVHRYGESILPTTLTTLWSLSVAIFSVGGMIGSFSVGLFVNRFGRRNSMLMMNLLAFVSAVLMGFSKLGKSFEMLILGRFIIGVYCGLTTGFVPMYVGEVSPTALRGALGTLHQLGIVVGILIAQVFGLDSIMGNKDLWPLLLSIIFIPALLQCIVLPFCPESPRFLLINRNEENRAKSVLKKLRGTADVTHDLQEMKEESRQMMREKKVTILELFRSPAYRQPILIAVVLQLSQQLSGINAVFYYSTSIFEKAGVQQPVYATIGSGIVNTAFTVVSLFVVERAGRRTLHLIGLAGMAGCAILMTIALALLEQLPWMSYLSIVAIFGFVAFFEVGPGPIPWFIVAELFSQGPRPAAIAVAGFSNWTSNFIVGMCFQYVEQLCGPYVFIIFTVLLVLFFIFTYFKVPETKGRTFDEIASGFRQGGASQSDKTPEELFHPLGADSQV
Experiment: 2-DOG transport in HEK293 cells over-expressing GLUT1
Conditions: pre-treated 5 minutes, 2-DOG uptake 4 min; read-out: IC50 (inhibition of 2-DOG transport in HEK cells over-expressing GLUT isoforms) GLUT1
Each entry below lists one item and its recorded IC50 value.

[
  {
    "Molecule": "COc1ccc(C(=O)N(Cc2ccncc2)Cc2cccc(OCc3cccc(OC)c3)c2)cc1",
    "System Tested": "GLUT1 (Homo sapiens, UniProt P11166)",
    "Measured Parameter": "IC50",
    "Result": "> 100 µM"
  }
]

Name the reported IC50 value associated with the molecule Oc1cccc(CNCc2ccncc2)c1 [Compound 3, reference compound]
> 100 µM
